- Tested on: α-1,3 glucanase I
- assay-notes: Effects of metallic ions and enzyme inhibitors on α-1,3 glucanase I
- Format: biochemical, Bacillus circulans BC-8
test-readout: inhibition of α-1,3 glucanase I enzymatic activity

In the examples that follow, each entry is paired with its recorded inhibition of α-1,3 glucanase I enzymatic activity.
{"columns": ["compound", "recorded-measurement"],
 "data": [
  ["O=C(O)c1cc[c]([Hg][Cl])cc1", "significant inhibition"],
  ["O=[N+]([O-])[O-].[Ag+]", "significant inhibition"],
  ["[Cl][Pb][Cl]", "inhibited"],
  ["[Cl][Fe][Cl]", "inhibited"]
]}

// switching to the query molecule
[in] Could you share what inhibition of α-1,3 glucanase I enzymatic activity was measured for [Cl][Hg][Cl] , tested on α-1,3 glucanase I?
[out] significant inhibition

---

- target-entity: dextranase (Arthrobacter sp., UniProt P39652)
- Construct: the mature dextranase protein consisting of 591 amino acid residues; endogenous in cells; host or cells: Arthrobacter sp; CB-8 (FERM BP-995), enzyme purified from the culture
- Sequence (P39652 50-640): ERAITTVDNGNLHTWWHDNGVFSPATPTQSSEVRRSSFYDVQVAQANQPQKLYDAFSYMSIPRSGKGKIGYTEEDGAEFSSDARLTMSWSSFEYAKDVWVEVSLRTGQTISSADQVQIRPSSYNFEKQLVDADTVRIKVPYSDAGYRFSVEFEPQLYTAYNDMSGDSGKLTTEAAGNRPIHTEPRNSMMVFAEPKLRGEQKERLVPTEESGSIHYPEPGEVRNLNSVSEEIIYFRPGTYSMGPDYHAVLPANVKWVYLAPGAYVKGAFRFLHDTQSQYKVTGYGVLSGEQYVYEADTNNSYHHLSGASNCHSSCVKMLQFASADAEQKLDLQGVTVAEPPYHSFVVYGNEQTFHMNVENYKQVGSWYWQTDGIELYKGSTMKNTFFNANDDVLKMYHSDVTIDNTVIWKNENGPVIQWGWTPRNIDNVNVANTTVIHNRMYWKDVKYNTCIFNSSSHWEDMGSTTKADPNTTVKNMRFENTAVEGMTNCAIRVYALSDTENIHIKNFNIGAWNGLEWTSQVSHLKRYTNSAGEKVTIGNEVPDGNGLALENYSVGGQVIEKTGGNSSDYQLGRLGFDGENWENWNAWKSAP
- assay-notes: Effects of metallic ions and enzyme inhibitors on dextranase activity
- Assay type: biochemical, Arthrobacter sp. CB-8
- measurement-conditions: summary of Table 6

{"columns": ["compound", "inhibition of dextranase (in words)"],
 "data": [
  ["O=[N+]([O-])[O-].[Ag+]", "significantly inhibited"],
  ["O=S(=O)([O-])[O-].[Cu+2]", "significantly inhibited"],
  ["[Cl][Hg][Cl]", "significantly inhibited"]
]}

---

- Test system: α-1,3 glucanase II
- assay-notes: Effects of metallic ions and enzyme inhibitors on α-1,3 glucanase II
- Format: biochemical, Bacillus circulans BC-8
test-readout: inhibition of α-1,3 glucanase II enzymatic activity

{"columns": ["compound", "recorded-measurement"],
 "data": [
  ["[Cl][Pb][Cl]", "inhibited"],
  ["O=C(O)c1cc[c]([Hg][Cl])cc1", "significant inhibition"],
  ["[Cl][Fe][Cl]", "inhibited"],
  ["O=[N+]([O-])[O-].[Ag+]", "significant inhibition"]
]}

[in] Need inhibition of α-1,3 glucanase II enzymatic activity, item [Cl][Hg][Cl]
[out] significant inhibition

Attribution: patent US5306639A
